Numbers sourced from patent US20060275828A1.

- tested-on: fluorescent receptor NK2R-RF1 (construct pCEP4-NK2R-RF1): EGFP fused between the alpha7 signal peptide and the amino-terminal end of the rat NK2R receptor, expressed on HEK 293 cells (Aequorea victoria; rat) (UniProt P16610)
- assay-details: displacement of 3H SR 48968 on HEK 293 cells expressing NK2R-RF1, filtration (FIG. 8b)
Where no end group is shown, it is not given here.
measure: Ki
Respond with a number, then the unit of measure.

Please report the measured Ki for HKTDSFVGLM (peptide, UniProt P20366 98-107, looked up, also: BODIPY 530/550 IA label, site not given here, mature; HPLC-purified reaction product of NKA with BODIPY 530/550 IA; also called NKA BO 1; NKA-Bodipy derivative) [NKA BO I (neurokinin A labeled with BODIPY 530/550 IA)]
16.1 nM
